biological target: Bifunctional dihydrofolate reductase-thymidylate synthase (Plasmodium falciparum K1, UniProt P13922, C59R/I164L/S108N); test: Binding affinity towards mutant dihydrofolate reductase (C59R+S108N+I164L DHFR) of Plasmodium falciparum
Sequence (P13922 whole entry, looked up, stated change not applied): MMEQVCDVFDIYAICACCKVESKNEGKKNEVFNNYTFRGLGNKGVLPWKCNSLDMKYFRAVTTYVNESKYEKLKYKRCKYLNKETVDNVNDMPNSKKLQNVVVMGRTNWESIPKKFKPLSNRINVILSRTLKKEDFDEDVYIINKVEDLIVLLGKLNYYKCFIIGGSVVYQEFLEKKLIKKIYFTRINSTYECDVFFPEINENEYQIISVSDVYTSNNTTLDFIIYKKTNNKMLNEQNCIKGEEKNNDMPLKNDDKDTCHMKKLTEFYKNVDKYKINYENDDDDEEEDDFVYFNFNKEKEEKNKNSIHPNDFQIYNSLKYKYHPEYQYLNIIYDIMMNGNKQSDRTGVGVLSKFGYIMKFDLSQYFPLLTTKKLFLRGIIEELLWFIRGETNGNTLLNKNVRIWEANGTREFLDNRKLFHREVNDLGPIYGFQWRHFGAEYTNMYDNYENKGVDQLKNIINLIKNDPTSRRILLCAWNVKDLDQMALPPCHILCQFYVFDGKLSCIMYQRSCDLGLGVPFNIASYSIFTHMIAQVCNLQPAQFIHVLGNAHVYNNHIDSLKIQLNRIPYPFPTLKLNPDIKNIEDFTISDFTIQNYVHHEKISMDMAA
Assignment: determine reported Ki for the given compounds.
Give bare numbers, in nM.

Please review the entries below; each comes with its answer.
CC(C)C1(C)N=C(N)N=C(N)N1c1cccc(Cl)c1 (centres undefined) = 213
Nc1nc(N)c(-c2cccc(Cl)c2)c(CCCc2ccccc2)n1 = 2.2
NC1=NC(c2cccc(Oc3ccccc3)c2)N(c2cccc(Cl)c2)C(N)=N1 (centres undefined) = 3
Nc1nc(N)c(-c2ccccc2)c(CCCO)n1 = 121
CC(C)C1(C)N=C(N)N=C(N)N1c1ccc(Cl)cc1 (centres undefined) = 4620

Parameters: items (list). Returns: Ki for each item.
1. CCc1nc(N)nc(N)c1-c1ccc(Cl)c(Cl)c1 [ETOPRINE]
2. NC1=NC(c2cccc(Oc3ccc(Cl)cc3)c2)N(c2ccc(Cl)cc2)C(N)=N1 (centres undefined)
3. NC1=NC(c2cccc(OCc3ccccc3)c2)N(c2ccc(Cl)cc2)C(N)=N1 (centres undefined)

OUT:
[41, 151, 771]

Parameters: items (list). Returns: Ki for each item.
1. COC(=O)CCCc1nc(N)nc(N)c1-c1ccccc1
2. CCCC1(C)N=C(N)N=C(N)N1c1ccc(Cl)cc1 (centres undefined)
3. CC1N=C(N)N=C(N)N1c1ccc(Cl)cc1 (centres undefined)
4. CC1(C)N=C(N)N=C(N)N1c1ccc(Cl)cc1 [CYCLOGUANIL]
5. CCCC1(C)N=C(N)N=C(N)N1c1cccc(Cl)c1 (centres undefined)

OUT:
1: 15; 2: 3650; 3: 1580; 4: 285; 5: 33.1

Parameters: items (list). Returns: Ki for each item.
1. CCCCCCC1(C)N=C(N)N=C(N)N1c1cccc(Cl)c1 (centres undefined)
2. CCCCCCc1nc(N)nc(N)c1-c1ccccc1

OUT:
12.1
0.7

###

Assignment: determine reported Ki for the given molecules.
target: Bifunctional dihydrofolate reductase-thymidylate synthase (Plasmodium falciparum K1, UniProt P13922, A16V/S108T); assay: Binding affinity towards mutant dihydrofolate reductase (A16V+S108T DHFR) of Plasmodium falciparum.
Sequence (P13922 whole entry, looked up, stated change not applied): as above
Answers are plain numbers, in nM.

CCCC1(C)N=C(N)N=C(N)N1c1cccc(Cl)c1 (stereo not given) = 471

Parameters: items (list). Returns: Ki for each item.
1. NC1=NC(c2cccc(Oc3ccc(Cl)cc3)c2)N(c2cccc(Cl)c2)C(N)=N1 (stereo not given)
2. CCCCCCC1(C)N=C(N)N=C(N)N1c1cccc(Cl)c1 (stereo not given)

OUT:
[3.5, 101]

###

test system: Vero; experiment: Relative antiplasmodial activity to cytotoxicity in Plasmodium falciparum TM4/8.2 infected Vero cells; assay type: functional
Assignment: determine reported Safety ratio for the given compounds.

Please review the entries below; each comes with its answer.
NC1=NC(c2ccc(Oc3ccccc3)cc2)N(c2cccc(Cl)c2)C(N)=N1 (stereo not drawn) = >76.9
CCCOc1ccc(C2N=C(N)N=C(N)N2c2cccc(Cl)c2)cc1 (stereo not drawn) = >200

Continue with the next compound.
IN: I am curious: what Safety ratio value has been reported for NC1=NC(c2cccc(Oc3cc(Cl)cc(Cl)c3)c2)N(c2cccc(Cl)c2)C(N)=N1 (stereo not drawn) ?
OUT: 5.1
